test system: VDR homodimer (NR concentration 270 nM); experiment: PBM binding z-score (relative to random genomic background probes); higher = stronger binding; sequences stand for … in GC…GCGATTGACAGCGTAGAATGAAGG
parameter: PBM binding z-score
Hey, just send me the number, nothing else.

IN: Read off the recorded PBM binding z-score for "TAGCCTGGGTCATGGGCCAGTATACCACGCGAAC"
OUT: -0.187

IN: Read off the recorded PBM binding z-score for "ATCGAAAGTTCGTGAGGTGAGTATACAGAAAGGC"
OUT: 1.22

IN: Read off the recorded PBM binding z-score for "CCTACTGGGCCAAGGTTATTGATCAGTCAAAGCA"
OUT: -0.0593

IN: Read off the recorded PBM binding z-score for "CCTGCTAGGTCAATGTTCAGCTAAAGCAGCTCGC"
OUT: 0.0912

IN: Read off the recorded PBM binding z-score for "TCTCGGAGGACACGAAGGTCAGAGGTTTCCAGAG"
OUT: 1.73

IN: Read off the recorded PBM binding z-score for "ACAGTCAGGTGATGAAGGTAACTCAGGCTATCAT"
OUT: -0.453

IN: Read off the recorded PBM binding z-score for "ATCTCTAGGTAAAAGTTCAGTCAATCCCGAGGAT"
OUT: 2.36

IN: Read off the recorded PBM binding z-score for "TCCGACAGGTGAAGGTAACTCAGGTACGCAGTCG"
OUT: 0.0508

IN: Read off the recorded PBM binding z-score for "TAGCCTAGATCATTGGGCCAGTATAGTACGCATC"
OUT: -0.283

IN: Read off the recorded PBM binding z-score for "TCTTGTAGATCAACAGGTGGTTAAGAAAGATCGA"
OUT: -0.227

IN: Read off the recorded PBM binding z-score for "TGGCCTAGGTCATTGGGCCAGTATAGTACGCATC"
OUT: 0.451

IN: Read off the recorded PBM binding z-score for "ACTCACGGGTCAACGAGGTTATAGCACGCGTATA"
OUT: 4.51

IN: Read off the recorded PBM binding z-score for "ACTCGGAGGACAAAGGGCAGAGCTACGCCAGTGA"
OUT: -0.288

IN: Read off the recorded PBM binding z-score for "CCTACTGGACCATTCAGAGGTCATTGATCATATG"
OUT: 4

IN: Read off the recorded PBM binding z-score for "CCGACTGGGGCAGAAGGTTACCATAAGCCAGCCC"
OUT: 0.083

IN: Read off the recorded PBM binding z-score for "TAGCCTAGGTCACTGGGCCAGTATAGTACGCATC"
OUT: 0.192

IN: Read off the recorded PBM binding z-score for "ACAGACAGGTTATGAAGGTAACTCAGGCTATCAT"
OUT: 0.373

IN: Read off the recorded PBM binding z-score for "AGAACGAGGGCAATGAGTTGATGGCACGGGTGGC"
OUT: 2.62

IN: Read off the recorded PBM binding z-score for "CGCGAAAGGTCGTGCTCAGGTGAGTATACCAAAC"
OUT: 1.18

IN: Read off the recorded PBM binding z-score for "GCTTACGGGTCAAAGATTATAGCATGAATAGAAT"
OUT: 0.811

IN: Read off the recorded PBM binding z-score for "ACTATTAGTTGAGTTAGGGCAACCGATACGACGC"
OUT: 0.368

IN: Read off the recorded PBM binding z-score for "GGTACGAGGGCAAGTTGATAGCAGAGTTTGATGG"
OUT: 2.1

IN: Read off the recorded PBM binding z-score for "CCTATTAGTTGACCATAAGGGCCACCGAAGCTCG"
OUT: 0.354

IN: Read off the recorded PBM binding z-score for "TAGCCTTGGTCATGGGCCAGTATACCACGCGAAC"
OUT: -0.715

IN: Read off the recorded PBM binding z-score for "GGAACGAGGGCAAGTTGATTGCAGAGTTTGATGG"
OUT: 2.02

IN: Read off the recorded PBM binding z-score for "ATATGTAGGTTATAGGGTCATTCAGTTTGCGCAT"
OUT: 4.34

IN: Read off the recorded PBM binding z-score for "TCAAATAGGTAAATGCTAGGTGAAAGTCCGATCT"
OUT: 0.251

IN: Read off the recorded PBM binding z-score for "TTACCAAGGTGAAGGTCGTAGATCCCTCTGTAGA"
OUT: 0.348

IN: Read off the recorded PBM binding z-score for "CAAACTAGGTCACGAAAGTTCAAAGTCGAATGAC"
OUT: 4.82

IN: Read off the recorded PBM binding z-score for "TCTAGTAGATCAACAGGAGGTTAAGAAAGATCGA"
OUT: 0.097

IN: Read off the recorded PBM binding z-score for "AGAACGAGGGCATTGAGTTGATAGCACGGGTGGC"
OUT: 5.15

IN: Read off the recorded PBM binding z-score for "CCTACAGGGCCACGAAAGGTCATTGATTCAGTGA"
OUT: 2.2

IN: Read off the recorded PBM binding z-score for "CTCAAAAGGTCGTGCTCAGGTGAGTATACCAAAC"
OUT: 0.794

IN: Read off the recorded PBM binding z-score for "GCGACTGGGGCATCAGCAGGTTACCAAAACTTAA"
OUT: -0.326

IN: Read off the recorded PBM binding z-score for "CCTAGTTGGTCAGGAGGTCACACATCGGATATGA"
OUT: 2.7

IN: Read off the recorded PBM binding z-score for "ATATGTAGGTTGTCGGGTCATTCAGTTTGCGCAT"
OUT: 4.2

IN: Read off the recorded PBM binding z-score for "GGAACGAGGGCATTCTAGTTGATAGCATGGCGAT"
OUT: 2.43

IN: Read off the recorded PBM binding z-score for "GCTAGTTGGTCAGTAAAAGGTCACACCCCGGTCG"
OUT: 1.43

IN: Read off the recorded PBM binding z-score for "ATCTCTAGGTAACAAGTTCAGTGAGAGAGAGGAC"
OUT: 2.81

IN: Read off the recorded PBM binding z-score for "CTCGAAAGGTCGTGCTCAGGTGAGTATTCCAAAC"
OUT: 0.806

IN: Read off the recorded PBM binding z-score for "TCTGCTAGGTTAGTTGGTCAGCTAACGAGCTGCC"
OUT: -1.15

IN: Read off the recorded PBM binding z-score for "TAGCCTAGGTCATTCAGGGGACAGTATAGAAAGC"
OUT: 1.66

IN: Read off the recorded PBM binding z-score for "TAGCCTAGGTCAGATCGGGCCAGAATACGCTATA"
OUT: -0.288

IN: Read off the recorded PBM binding z-score for "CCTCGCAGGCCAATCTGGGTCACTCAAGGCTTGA"
OUT: 0.14

IN: Read off the recorded PBM binding z-score for "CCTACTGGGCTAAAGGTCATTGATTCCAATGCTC"
OUT: 2.18

IN: Read off the recorded PBM binding z-score for "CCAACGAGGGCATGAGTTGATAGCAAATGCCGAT"
OUT: 1.2

IN: Read off the recorded PBM binding z-score for "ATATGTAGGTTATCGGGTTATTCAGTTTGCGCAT"
OUT: 2.11

IN: Read off the recorded PBM binding z-score for "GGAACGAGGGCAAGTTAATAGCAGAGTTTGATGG"
OUT: 1.6

IN: Read off the recorded PBM binding z-score for "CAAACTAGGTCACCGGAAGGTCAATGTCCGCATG"
OUT: 3.01

IN: Read off the recorded PBM binding z-score for "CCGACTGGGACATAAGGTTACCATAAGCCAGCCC"
OUT: -0.0177

IN: Read off the recorded PBM binding z-score for "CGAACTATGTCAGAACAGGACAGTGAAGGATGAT"
OUT: 0.0831

Taken from the supplement of paper PMC6555819.
